Test system: Mean Arterial Blood Pressure in Conscious Rats
Measurement Description: Effect on mean arterial blood pressure in conscious rats (oral)
Type: in vivo, rat (male Sprague-Dawley)
Test Conditions: Rattus norvegicus, po, 10 mg/kg, maximal % decrease of mean blood pressure, read-out: Hypotensive effect R max
Record Y whenever inhibition in vivo at 10 mg/kg is at 30% or higher; record N when lower.

Record excerpt, results attached:
Molecule | Group Label
CCC(=CC(CNC(C)=O)=NO)C(C)[N+](=O)[O-] (single isomer, unassigned) [Example 5 A] | Y
CCC(C(C)=CC(CNC(=O)c1cccnc1)=NO)[N+](=O)[O-] (single isomer, unassigned) [Example 18 A] | N
CCC(=CC(CNC(C)=O)=NO)C(CC)[N+](=O)[O-] (stereo not shown) [Example 24] | Y

Input line: Is the recorded value of inhibition in vivo at 10 mg/kg equal to or greater than 30% for this molecule? COCC(C(C)=CC(CNC(=O)c1ccncc1)=NO)[N+](=O)[O-] (stereo not shown) [Example 22]
Output line: N

----------
System: Mean Arterial Blood Pressure in Anesthetized Rats
Measurement Description: Effect on mean arterial blood pressure in anesthetized rats (intravenous)
Format: in vivo, rat (male Sprague-Dawley)
Test Conditions: Rattus norvegicus, iv, 0.32 mg/kg, maximal % decrease of mean blood pressure, read-out: Hypotensive effect R max
// map inhibition in vivo at 0.32 mg/kg onto a label; ranges low (below 30%), middle (30% to below 40%), high (40% or more)

Field: example entries. Status: answers known.
Compound | Group Label
CCC(=CC(CNC(=O)c1cccnc1)=NO)C(C)[N+](=O)[O-] (stereo not shown) | middle
CCC(=CC(CNC(=O)Cc1cccnc1)=NO)C(C)[N+](=O)[O-] (stereo not shown) | high
CCC(=CC(CNC(=O)c1sc(C)nc1C)=NO)C(C)[N+](=O)[O-] (stereo not shown) | high
CCC(=CC(CNC(=O)c1ccncc1)=NO)C(C)[N+](=O)[O-] (stereo not shown) | middle
CCC(=CC(CNC(=O)c1cccnc1C)=NO)C(C)[N+](=O)[O-] (single isomer, unassigned) | middle
O=C(NCC(C=C1CCCCC1[N+](=O)[O-])=NO)c1cccnc1 (stereo not shown) | low
COCC(C(C)=CC(CNC(=O)c1ccncc1)=NO)[N+](=O)[O-] (stereo not shown) | low
CCC(=CC(CNC(=O)c1cccnc1Cl)=NO)C(C)[N+](=O)[O-] (stereo not shown) | high

Now consider the entry below.
Input line: State the band of CCC(=CC(CNS(=O)(=O)N(C)C)=NO)C(C)[N+](=O)[O-] (single isomer, unassigned)
Output line: high

----------
Test system: Mean Arterial Blood Pressure in Conscious Rats
Measurement Description: Effect on mean arterial blood pressure in conscious rats (oral)
Format: in vivo, rat (male Sprague-Dawley)
Test Conditions: 10 mg/kg, time to recover to 5% of maximal decrease
Protocol: Male Sprague-Dawley rats, aged 9-11 weeks, were anesthetized with ether and a polyethylene cannula filled with heparin solution was inserted into the femoral artery of the rats to measure mean blood pressure. Mean blood pressure was measured with a pressure transducer and recorded on a polygraph. […] Oral hypotensive effects of each compound were expressed as the maximal decrease (R max), the half time (T 1/2) and the duration (Dur.). […]
Metric: Hypotensive effect Dur. (min)
The answer is to be given in min; state only the numeric part.

Molecule | Metric | Unit Annotation | Reported Measurement
CCC(=CC(CNC(=O)C(N)=O)=NO)C(C)[N+](=O)[O-] (stereo not shown) [Example 40 A] | Hypotensive effect Dur. | min | 71.1
CCC(C(C)=CC(CNC(=O)c1cccnc1)=NO)[N+](=O)[O-] (single isomer, unassigned) [Example 18 A] | Hypotensive effect Dur. | min | 57.0
CCC(=CC(CNC(=O)c1cccnc1)=NO)C(C)[N+](=O)[O-] (stereo not shown) [Example 6 A] | Hypotensive effect Dur. | min | 116.0

The value of Hypotensive effect Dur. measured for the molecule CCC(C(C)=CC(CNC(=O)c1cccnc1)=NO)[N+](=O)[O-] (single isomer, unassigned) [Example 18 B] turned out to be 54.7

The molecule listed as O=C(NCC(C=C1CCCCC1[N+](=O)[O-])=NO)c1cccnc1 (stereo not shown) [Example 21] shows Hypotensive effect Dur. equal to 67.7

Hypotensive effect Dur. recorded for this molecule, CCC(=CC(CNC(=O)c1ccncc1)=NO)C(C)[N+](=O)[O-] (stereo not shown) [Example 29] , is 72.5

Item: CCC(=CC(CNC(=O)c1cccnc1Cl)=NO)C(C)[N+](=O)[O-] (stereo not shown) [Example 32] | Hypotensive effect Dur.: 50.9

----------
Tested on: Mean Arterial Blood Pressure in Conscious Rats
Measurement Description: Effect on mean arterial blood pressure in conscious rats (oral)
Assay type: in vivo, rat (male Sprague-Dawley)
Test Conditions: Rattus norvegicus, po, 10 mg/kg, maximal % decrease of mean blood pressure, read-out: Hypotensive effect R max
Lab note: compare inhibition in vivo at 10 mg/kg against 30%. Equal or greater, write criterion met. Smaller, write criterion not met.

Input line: Does inhibition in vivo at 10 mg/kg meet or surpass 30% for CCC(=CC(CNC(=O)c1cccnc1C)=NO)C(C)[N+](=O)[O-] (single isomer, unassigned) ?
Output line: criterion met

Input line: Reported inhibition in vivo at 10 mg/kg at or above 30%? CCC(=CC(CNC(=O)c1cccnc1Cl)=NO)C(C)[N+](=O)[O-] (centres unmarked)
Output line: criterion met

----------
Each entry below carries its recorded inhibition in vivo at 0.32 mg/kg.
System: Mean Arterial Blood Pressure in Anesthetized Rats
Measurement Description: Effect on mean arterial blood pressure in anesthetized rats (intravenous)
Assay type: in vivo, rat (male Sprague-Dawley)
Test Conditions: Rattus norvegicus, iv, 0.32 mg/kg, maximal % decrease of mean blood pressure, read-out: Hypotensive effect R max
State just the number; it will be interpreted in %.

Compound | Assay Target | inhibition in vivo at 0.32 mg/kg / %
CCC(=CC(CN1C(=O)c2ccccc2C1=O)=NO)C(C)[N+](=O)[O-] (single isomer, unassigned) | Mean Arterial Blood Pressure in Anesthetized Rats | 40.8

I looked up CC(C)C(=CC(CNC(=O)c1cccnc1)=NO)C(C)[N+](=O)[O-] (stereo not shown) and its inhibition in vivo at 0.32 mg/kg for Mean Arterial Blood Pressure in Anesthetized Rats was 3.8

GET /values?item= CCC(=CC(COC(=O)c1cccnc1)=NO)C(C)[N+](=O)[O-] (single isomer, unassigned) &system= Mean Arterial Blood Pressure in Anesthetized Rats returns inhibition in vivo at 0.32 mg/kg: 37

Tested on Mean Arterial Blood Pressure in Anesthetized Rats: CCC(=CC(CNC(=O)C(N)=O)=NO)C(C)[N+](=O)[O-] (stereo not shown) . Observed inhibition in vivo at 0.32 mg/kg: 52.3

----------
inhibition in vivo at 0.32 mg/kg for assorted compounds
Tested on: Mean Arterial Blood Pressure in Anesthetized Rats
Measurement Description: Effect on mean arterial blood pressure in anesthetized rats (intravenous)
Format: in vivo, rat (male Sprague-Dawley)
Test Conditions: Rattus norvegicus, iv, 0.32 mg/kg, maximal % decrease of mean blood pressure, read-out: Hypotensive effect R max
Give the quantity in %, number only.

Compound | Metric | Reported Measurement
CCC(=CC(CNC(=O)c1cccnc1)=NO)C(CC)[N+](=O)[O-] (single isomer, unassigned) | inhibition in vivo at 0.32 mg/kg | 24.1
CCC(=CC(CNC(=O)c1cnccc1C(N)=O)=NO)C(C)[N+](=O)[O-] (stereo not drawn) | inhibition in vivo at 0.32 mg/kg | 22.2

With those in mind, consider the next compound.
Value of measured inhibition in vivo at 0.32 mg/kg for the entry CCC(=CC(CNC(=O)c1ccc(C)nc1)=NO)C(C)[N+](=O)[O-] (stereo not drawn) : 41.7

----------
Quick reference for inhibition in vivo at 10 mg/kg among some compounds
System: Mean Arterial Blood Pressure in Conscious Rats
Measurement Description: Effect on mean arterial blood pressure in conscious rats (oral)
Type: in vivo, rat (male Sprague-Dawley)
Test Conditions: Rattus norvegicus, po, 10 mg/kg, maximal % decrease of mean blood pressure, read-out: Hypotensive effect R max
// return numeric value only (unit: %, not printed)

Compound | Assay Target | Reported Measurement
O=C(NCC(C=C1CCCCC1[N+](=O)[O-])=NO)c1cccnc1 (stereo not drawn) | Mean Arterial Blood Pressure in Conscious Rats | 34.3
CCC(=CC(CNC(=O)c1cccnc1SC)=NO)C(C)[N+](=O)[O-] (single isomer, unassigned) | Mean Arterial Blood Pressure in Conscious Rats | 14.9

Please turn your attention to the following entry.
Sure, the documented inhibition in vivo at 10 mg/kg for CCC(=CC(CNC(=O)c1cccnc1O)=NO)C(C)[N+](=O)[O-] (single isomer, unassigned) is 23.1

----------
System: Mean Arterial Blood Pressure in Anesthetized Rats
Measurement Description: Effect on mean arterial blood pressure in anesthetized rats (intravenous)
Assay type: in vivo, rat (male Sprague-Dawley)
Test Conditions: Rattus norvegicus, iv, 0.32 mg/kg, maximal % decrease of mean blood pressure, read-out: Hypotensive effect R max
Metric: inhibition in vivo at 0.32 mg/kg (%)
Express your answer in %, writing the number without its unit.

Compound | Metric | Reported Measurement
CC(=CC(CNC(=O)c1cccnc1)=NO)C(C)[N+](=O)[O-] (single isomer, unassigned) | inhibition in vivo at 0.32 mg/kg | 40.3
CCC(=CC(CNC(C)=O)=NO)C(CC)[N+](=O)[O-] (stereo not shown) | inhibition in vivo at 0.32 mg/kg | 31.8
CCC(C(C)=CC(CNC(=O)c1cccnc1)=NO)[N+](=O)[O-] (single isomer, unassigned) | inhibition in vivo at 0.32 mg/kg | 10.2
CCC(=CC(CNC(=O)c1nc[nH]c1C)=NO)C(C)[N+](=O)[O-] (single isomer, unassigned) | inhibition in vivo at 0.32 mg/kg | 31.2
CCC(=CC(CNC(=O)c1cccnc1SC)=NO)C(C)[N+](=O)[O-] (single isomer, unassigned) | inhibition in vivo at 0.32 mg/kg | 24.3

response.value for CCC(=CC(CNC(C)=O)=NO)C(C)[N+](=O)[O-] (single isomer, unassigned) (field: inhibition in vivo at 0.32 mg/kg) = 49.9

Notebook: CCC(=CC(CNC(=O)c1cccnc1O)=NO)C(C)[N+](=O)[O-] (single isomer, unassigned) , inhibition in vivo at 0.32 mg/kg read as 20.9
